# System: c-Src;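 further: 11-residue human phosphosite peptides and single-mutation variants displayed on the E. coli surface, counted by deep sequencing, each peptide's frequency after selection divided by its frequency in the unselected input library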;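 further: frequency after pTyr selection over input frequency; kinase dosed for 20-30% of maximal phosphorylation in three min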
# methodNotes: phosphorylation enrichment, bacterial display (enrichment ratio); higher = better substrate or ligand; peptides without Tyr show the background
propertyName: phosphorylation enrichment
I only need the number, thanks.

### Prompt Item SEEVTYATLTF [CLEC12B_Y7] : provide phosphorylation enrichment
### Response 5.28

### Prompt Item LSQQVYRVNLS [FAT4_Y480_F475L] : provide phosphorylation enrichment
### Response 0.836

### Prompt Item VRFMEYETQVK [TARDBP_Y155_T153M] : provide phosphorylation enrichment
### Response 0.481

### Prompt Item RGDTVYTVNRM [KBTBD13_Y404] : provide phosphorylation enrichment
### Response 4.93

### Prompt Item HGAKVYIDPFT [EPHB4_Y590_T587A] : provide phosphorylation enrichment
### Response 0.713

### Prompt Item RKNAKYLLKGE [CDH5_Y82] : provide phosphorylation enrichment
### Response 0.687

### Prompt Item NYSKMYCNPDA [KNL1_Y489_A486S] : provide phosphorylation enrichment
### Response 0.349

### Prompt Item ELELLYLDRNS [NYX_Y284] : provide phosphorylation enrichment
### Response 0.515

### Prompt Item TFEFRYLEDRD [CNOT3_Y746_YF] : provide phosphorylation enrichment
### Response 0.591

### Prompt Item SAQHHYESLQT [BIN1_Y157_R154Q] : provide phosphorylation enrichment
### Response 0.433

### Prompt Item SVETPYVSVTF [NDRG2_Y47_G48V] : provide phosphorylation enrichment
### Response 2.05

### Prompt Item VGRVGYVSGWG [HP_Y280] : provide phosphorylation enrichment
### Response 0.507

### Prompt Item ARGTRYRFVSQ [UCN3_Y95_YF] : provide phosphorylation enrichment
### Response 0.607

### Prompt Item TLQNMYGCDVG [HLA-B_Y123_S121N] : provide phosphorylation enrichment
### Response 0.601

### Prompt Item KSPGEYVNIEF [IRS1_Y896] : provide phosphorylation enrichment
### Response 0.47

### Prompt Item LTSKPYAFTAW [NDUFS1_Y236_R241W] : provide phosphorylation enrichment
### Response 0.4

### Prompt Item FSTDFYRVGGH [NTRK2_Y707_YF] : provide phosphorylation enrichment
### Response 0.478

### Prompt Item ADLLVYIKALN [HPRT1_Y81_D80V] : provide phosphorylation enrichment
### Response 0.471

### Prompt Item VTRANYFIRDE [GNAS_Y339_K338N] : provide phosphorylation enrichment
### Response 0.494

### Prompt Item FTGDIYSNSNL [LZTR1_Y141_YF] : provide phosphorylation enrichment
### Response 5.54

### Prompt Item MKGDFYRSLAE [YWHAG_Y131_Y133S_YF] : provide phosphorylation enrichment
### Response 0.441

### Prompt Item WQQQSYLASGI [CTNNB1_Y30_D32A] : provide phosphorylation enrichment
### Response 0.5

### Prompt Item SMGHRYIEVFK [HNRNPF_Y82] : provide phosphorylation enrichment
### Response 0.445

### Prompt Item SLDHPYEKPRK [INAVA_Y333] : provide phosphorylation enrichment
### Response 0.352

### Prompt Item YPKVRYHWLVL [APTX_Y214_A212V] : provide phosphorylation enrichment
### Response 0.474

### Prompt Item VICRRYLVMQR [IL3RA_Y328] : provide phosphorylation enrichment
### Response 0.342

### Prompt Item EVESPYEVRDF [GIGYF2_Y1168_H1171R_YF] : provide phosphorylation enrichment
### Response 6.73

### Prompt Item SHLSAFPALEG [CD5_Y465_Y465F] : provide phosphorylation enrichment
### Response 0.328

### Prompt Item TYAVSYLPDMS [FLNC_Y1602_T1599A] : provide phosphorylation enrichment
### Response 0.811
